- System: MS2 coat protein
- assay details: apparent Kd, MS2 coat protein; higher = weaker binding; RNA-MaP array
- condition description: ligand present: theophylline; designed as: OFF switch for theophylline
assay readout: apparent Kd (nM)

record sequence	assay readout	observed result
ACCGAGGCAAUGGAUACCAGUGCGCCACAAUCGUGCUUCAACAUGAGGAUCACCCAUGUGCACCCUUGGCAGCCAACGGGCUCAU	apparent Kd	19.9
UUAUAUUCUCAAUCGCCAUGUGCUUUAGAUACCAGUCUGAUAAAUGACCCUUGGCAGCUAGAGACAUGAGGAUCACCCAUGUCUU	apparent Kd	29.8
AAAGAUUCCUGAACGCCGCAUACCGAUGAUACCAGCCAACGGAAAGGCCCUUGGCAGCAUUAAACAUGAGGAUCACCCAUGUCUA	apparent Kd	13.9
CUUCUGAAAGCAAUGGGAUCUGUUAUUGAUACCAGCAUCUGAUUUUGCCCUUGGCAGCAAGAAACAUGAGGAUCACCCAUGUGGC	apparent Kd	61.2
CUGACGAGCUUUUUGUCAGGUUGUGUAGAUACCAGUUCUCUGGUGAACCCUUGGCAGCUAACAACAUGAGGAUCACCCAUGUGAU	apparent Kd	326
AGUGCUACGUGUAAUCAAAGAGAACCAGAUACCAGAUUAGCAUACAUCCCUUGGCAGCUGCAUACAUGAGGAUCACCCAUGUCAG	apparent Kd	39.1
UUGUACGAAACUGAUACCAGCCAGCAAUGCCACCAAGAGCACAUGAGGAUCACCCAUGUUGGCCCUUGGCAGCAGGACAAUAAGC	apparent Kd	9.47

====

- Test system: MS2 coat protein
- assay details: apparent Kd, MS2 coat protein; higher = weaker binding; RNA-MaP array
- condition description: ligand present: flavin mononucleotide; designed as: OFF switch for flavin mononucleotide
Measured apparent Kd, listed per entry.

record sequence	apparent Kd [nM]
GGGCGACUAGGAUAUACAGGAAGUUAAUGAGUGUCAAAGAAACAUGAGGAUCACCCAUGUAGAAGGAGUGCUAU	12.6
CAACCACACAUAAGGCAAGGACAUGAGGAUCACCCAUGUGGUAGAAGGCAUCCUAAUGCGGACGAUGAGGAUAUACGACGUGCA	50
AAAAUUCUAGUGAGGAUAUGGUACGUUGUAGUAAGCCAGAAGGCACAUGAGGAUCACCCAUGUAUAAUGGACGA	148
AGGUCGAAACUAGGAUAUCUUCACUAUGUCAGAAGAGAAGGAGUAGAGCAUGACAGUGAUAGUACAUGAGGAUCACCCAUGUUA	15.7
GGGCCACCUCUAACAUGAGGAUCACCCAUGUUCGUCGGUUCCGAGGAUAUGUCUAGACGUAACGGACAGAAGGCGGUCCGGCUG	81
UUCCUGAAAGGAUAUACCUGGCCCGUGAACUGGAUAAAAGCACAUGAGGAUCACCCAUGUAGAAGGUUCGAUUA	7.02
UGCGGCGAAGGAUAUUGACCAAAACACAUGAGGAUCACCCAUGUACUCAUAACAUGCUAACAAGAAGGUCGCGUAA	13.8
GCGGAACAUGAGGAUCACCCAUGUCAGGAUAUACGCACGGAGUAGGAGGAGGCCUAUGGUAGAAGGGACAGUGA	10.2

====

Measured apparent Kd, listed per entry.
- Test system: MS2 coat protein
- assay details: apparent Kd, MS2 coat protein; higher = weaker binding; RNA-MaP array; FMN 200 µM where present
- condition description: ligand present: flavin mononucleotide; designed as: ON switch for flavin mononucleotide

record sequence	apparent Kd
GACAUGAGGAUCACCCAUGUCCAUGCAAGAGUAGUUGAGACCAGAAGGACCGUGCGGAGCGCAGGGUAGGAUAUGGAGCCCUCA	9.46 nM
GGAGCCAGCACCGAGGAUAUUCAUAUUAAAACAUGAGGAUCACCCAUGUAGGCCAGAAGGCCUUGGGAGAAGGCGGACUGGCUCG	11.4 nM
GUAGCUAUCGGAGGAUAUUCAUACCGGAAACGGACAUGAGGAUCACCCAUGUGGCGAAAGCCUUUGGAGAAGGCCGAUAGCUAC	3.33 nM
GGAUGCCGCUCAGGAUAUGUGGGUUGUCUAGUAUUUAGAUUCCACAUGAGGAUCACCCAUGUAACACAGAAGGGAGAUGGUGAU	22.7 nM
UCCACUGCUGAGAAGGGAUACGUCUGGUUCGCAUCAGGAUAUCGAUACAGUGCAGCAUGAGGACAUGAGGAUCACCCAUGUGUC	19.3 nM
GCAGCGCCUGACAUGAGGAUCACCCAUGUUCCAUUGUUGAGUCAGGAUAUAGUCUAGAAACUAGACUAGAAGGGAUAUGCUGCU	50.8 nM
GAGCGGCGUACAGGAUAUCCUACAUGAGGAUCACCCAUGUCACAUUUACACGAGAACGUGUACGAGGAGAAGGGUGGGUUCGUG	588 nM
UGGGACGUGGGAGGAUAUCGGCCUGUAACAGUACGAGAAGGCCCAGUCCAAUAACAGACGGACAUGAGGAUCACCCAUGUCUCA	14.3 nM
GAAGCAUGCAAUAACAUGAGGAUCACCCAUGUGAAAACACGUGAGGAUAUUGAUCUGAAGAAGAUCGAGAAGGCACCGUGCUAA	9.92 nM
AUACAUGAGGAUCACCCAUGUAAUUAAUUAAUUAAUAAGAUCUAGGAUAUCAGCUCGUUUAGAGCUGAGAAGGAGAUCACAUGU	13.1 nM
GGAGCCGGCACCGAGGAUAUUCAUAUUAAAACAUGAGGAUCACCCAUGUAGCUCGAAAGAGCUUGGGAGAAGGCGGAUCGGCUCG	43.1 nM
CUGGUUGUCGUAGGAUAUGUAGGAUAUUCCUACAUGAGGAUCACCCAUGUUCGCAUGGAAGAAGGACAGAAGGACGAUGACCAA	8.77 nM
GCAUACAUUCGAGGAUAUCGGUGAACAAAUUAACGAGAAGGCGAUAUAAUGUUUAAUCUUAUAAACAUGAGGAUCACCCAUGUA	31.2 nM
CGCCAUCCCGUUGGCGUGAGGAUACCAGAAGGGACGAUCUCACAUGAGGAUCACCCAUGUUAUAGUCAGGAUAUGGGUUCAUCA	14.2 nM
